assay: Cerebrospinal fluid and plasma distribution in vivo; settings: rat, cerebrospinal fluid; 2h, male rats, intravenous 5 mg/kg, n = 1; read-out: Cerebrospinal fluid
So basically: concentration at 2 h at 3 ng/g or higher? That is 1 (yes). Lower than 3 ng/g? That is 0 (no).

{"compound": "[2H]C([2H])([2H])NC(=O)c1ccc(N2CCN(C[C@H]3CCc4nc(C)c(=O)[nH]c4C3)CC2)c(F)n1", "group.label": "0 (no)"}
{"compound": "CNC(=O)c1ccc(N2CCN(CC3COc4cc(C)c(=O)[nH]c4C3)CC2)c(F)n1 (stereo not drawn)", "group.label": "1 (yes)"}
{"compound": "CNC(=O)c1ccc(C2=CCN(CC3Cc4[nH]c(=O)c(C5CC5)cc4CO3)CC2)c(F)n1 (stereo not drawn)", "group.label": "1 (yes)"}
{"compound": "CNC(=O)c1ccc(N2CCN(CC3Cc4[nH]c(=O)c(C)cc4CO3)CC2)c(F)n1 (stereo not drawn)", "group.label": "1 (yes)"}
{"compound": "CNC(=O)c1ccc(N2CCN(C[C@H]3CCc4nc(C)c(=O)[nH]c4C3)CC2)c(C)n1", "group.label": "1 (yes)"}
{"compound": "CNC(=O)c1ccc(N2CCN(CC3Cc4[nH]c(=O)c(C)cc4CO3)CC2)c(Cl)n1 (stereo not drawn)", "group.label": "1 (yes)"}
{"compound": "[2H]C([2H])([C@H]1CCc2nc(C)c(=O)[nH]c2C1)N1CCN(c2ccc(C(=O)NC)nc2F)CC1", "group.label": "0 (no)"}
{"compound": "CNC(=O)c1ccc(N2CCN(CC3Cc4[nH]c(=O)c(Cl)cc4CO3)CC2)c(F)n1 (stereo not drawn)", "group.label": "0 (no)"}

* * *

system: BRCA wild-type DLD-1 cells; experiment: Anti-proliferative activity against cells (CCK8): DLD-1; format: cell-based; conditions: Homo sapiens, 72 h + 96 h culture

{"compound": "CCc1cc2c([nH]c1=O)CC(CN1CCC(c3ccc(C(=O)NC)nc3F)CC1)OC2 (stereo not drawn)", "IC50": "> 1 µM"}
{"compound": "Cc1nc2c([nH]c1=O)C[C@@H](CN1CCN(c3ccc(C(=O)NC4CC4)nc3F)CC1)CC2", "IC50": "> 1 µM"}
{"compound": "CCc1cc2c([nH]c1=O)C[C@@H](CN1CCN(c3ccc(C(=O)NC)nc3F)CC1)OC2", "IC50": "> 1 µM"}

* * *

test: Pharmacokinetic evaluation in Balb/c mice; format: in vivo; conditions: 1mg/kg, PO

{"compound": "CNC(=O)c1ccc(N2CCN(C[C@H]3CCc4nc(C)c(=O)[nH]c4C3)CC2)c(F)n1 [Example 45]", "units": "mL/min/kg", "CL": 9.83}
{"compound": "CCc1nc2c([nH]c1=O)C[C@@H](CN1CC=C(c3ccc(C(=O)NC)nc3F)CC1)CC2 [Example 53]", "units": "mL/min/kg", "CL": 0.67}
{"compound": "CCc1cc2c([nH]c1=O)CC(CN1CCN(c3ccc(C(=O)NC)nc3F)CC1)OC2 (stereo not shown) [Compound 2]", "units": "mL/min/kg", "CL": 3.17}
{"compound": "CNC(=O)c1ccc(C2=CCN(CC3Cc4[nH]c(=O)c(C5CC5)cc4CO3)CC2)c(F)n1 (stereo not shown) [Example 51]", "units": "mL/min/kg", "CL": 0.17}

* * *

Dear all, this message contains pIC50 results, target or system PARP1 (Homo sapiens).
pIC50: −log10 of the molar value.
attribute.measured: pIC50

{"molecule": "CNC(=O)c1ccc(N2CCN(CC3Cc4[nH]c(=O)c(C)cc4CO3)CC2)c(Cl)n1 (centres unmarked)", "observed.result": "≥ 7.30"}
{"molecule": "CNC(=O)c1ccc(C2=CCN(CC3Cc4[nH]c(=O)c(C5CC5)cc4CO3)CC2)c(F)n1 (centres unmarked)", "observed.result": "6.30 to 7.30"}
{"molecule": "[2H]C([2H])([2H])NC(=O)c1ccc(N2CCN(CC3CCc4cc(CC)c(=O)[nH]c4C3)CC2)cn1 (centres unmarked)", "observed.result": "≥ 7.30"}
{"molecule": "CCc1cc2c([nH]c1=O)CC(CN1CC=C(c3ccc(C(=O)NCC(F)F)nc3F)CC1)CC2 (centres unmarked)", "observed.result": "≥ 7.30"}
{"molecule": "CNC(=O)c1ccc(C2=CCN(C[C@H]3CCc4nc(C)c(=O)[nH]c4C3)CC2)c(F)n1", "observed.result": "≥ 7.30"}
{"molecule": "CCc1cc2c([nH]c1=O)CC(CN1CC=C(c3ccc(C(=O)NC)nc3F)CC1)OC2 (centres unmarked)", "observed.result": "≥ 7.30"}
{"molecule": "[2H]C([2H])([2H])NC(=O)c1ccc(C2=CCN(CC3CCc4cc(CC)c(=O)[nH]c4C3)CC2)c(F)n1 (centres unmarked)", "observed.result": "≥ 7.30"}
{"molecule": "CNC(=O)c1ccc(N2CCN(CC3Cc4[nH]c(=O)c(C)cc4CO3)CC2)c(F)n1 (centres unmarked)", "observed.result": "6.30 to 7.30"}

* * *

experiment: Cerebrospinal fluid and plasma distribution in vivo; conditions: rat, plasma; 0.25h, male rats, intravenous 5 mg/kg, n = 1; read-out: Plasma
attribute.measured: concentration at 0.25 h (ng/mL)

{"compound": "[2H]C([2H])([2H])NC(=O)c1ccc(N2CCN(C[C@H]3CCc4nc(C)c(=O)[nH]c4C3)CC2)c(F)n1 [Example 82]", "attribute.measured": "concentration at 0.25 h", "observed.result": 2740}
{"compound": "CNC(=O)c1ccc(N2CCN(CC3Cc4[nH]c(=O)c(C(F)F)cc4CO3)CC2)c(F)n1 (stereo not drawn) [Example 43]", "attribute.measured": "concentration at 0.25 h", "observed.result": 8030}
{"compound": "CNC(=O)c1ccc(N2CCN(CC3Cc4[nH]c(=O)c(C)cc4CO3)CC2)c(F)n1 (stereo not drawn) [Example 39]", "attribute.measured": "concentration at 0.25 h", "observed.result": 8200}
{"compound": "CNC(=O)c1ccc(C2=CCN(CC3Cc4[nH]c(=O)c(C5CC5)cc4CO3)CC2)c(F)n1 (stereo not drawn) [Example 51]", "attribute.measured": "concentration at 0.25 h", "observed.result": 41900}
{"compound": "CNC(=O)c1ccc(N2CCN(CC3Cc4[nH]c(=O)c(Cl)cc4CO3)CC2)c(F)n1 (stereo not drawn) [Example 64]", "attribute.measured": "concentration at 0.25 h", "observed.result": 1620}
{"compound": "CNC(=O)c1ccc(N2CCN(CC3COc4cc(C)c(=O)[nH]c4C3)CC2)c(F)n1 (stereo not drawn) [Example 101]", "attribute.measured": "concentration at 0.25 h", "observed.result": 2820}
{"compound": "CNC(=O)c1ccc(N2CCN(CC3Cc4[nH]c(=O)c(C)cc4CO3)CC2)c(Cl)n1 (stereo not drawn) [Example 74]", "attribute.measured": "concentration at 0.25 h", "observed.result": 8790}
{"compound": "CNC(=O)c1ccc(N2CCN(C[C@H]3CCc4nc(C)c(=O)[nH]c4C3)CC2)c(C)n1 [Example 47]", "attribute.measured": "concentration at 0.25 h", "observed.result": 1010}
{"compound": "[2H]C([2H])([C@H]1CCc2nc(C)c(=O)[nH]c2C1)N1CCN(c2ccc(C(=O)NC)nc2F)CC1 [Example 83]", "attribute.measured": "concentration at 0.25 h", "observed.result": 1500}

* * *

assay: Cerebrospinal fluid and plasma distribution in vivo; conditions: rat, cerebrospinal fluid; 0.25h, male rats, intravenous 5 mg/kg, n = 1; read-out: Cerebrospinal fluid

{"molecule": "CNC(=O)c1ccc(N2CCN(CC3Cc4[nH]c(=O)c(C)cc4CO3)CC2)c(F)n1 (stereo not drawn)", "concentration at 0.25 h, ng/g": 103}
{"molecule": "CNC(=O)c1ccc(N2CCN(CC3Cc4[nH]c(=O)c(C)cc4CO3)CC2)c(Cl)n1 (stereo not drawn)", "concentration at 0.25 h, ng/g": 60}
{"molecule": "CNC(=O)c1ccc(C2=CCN(CC3Cc4[nH]c(=O)c(C5CC5)cc4CO3)CC2)c(F)n1 (stereo not drawn)", "concentration at 0.25 h, ng/g": 53}

* * *

molecular target: PARP1 (Homo sapiens)
Sequence (P09874 whole entry): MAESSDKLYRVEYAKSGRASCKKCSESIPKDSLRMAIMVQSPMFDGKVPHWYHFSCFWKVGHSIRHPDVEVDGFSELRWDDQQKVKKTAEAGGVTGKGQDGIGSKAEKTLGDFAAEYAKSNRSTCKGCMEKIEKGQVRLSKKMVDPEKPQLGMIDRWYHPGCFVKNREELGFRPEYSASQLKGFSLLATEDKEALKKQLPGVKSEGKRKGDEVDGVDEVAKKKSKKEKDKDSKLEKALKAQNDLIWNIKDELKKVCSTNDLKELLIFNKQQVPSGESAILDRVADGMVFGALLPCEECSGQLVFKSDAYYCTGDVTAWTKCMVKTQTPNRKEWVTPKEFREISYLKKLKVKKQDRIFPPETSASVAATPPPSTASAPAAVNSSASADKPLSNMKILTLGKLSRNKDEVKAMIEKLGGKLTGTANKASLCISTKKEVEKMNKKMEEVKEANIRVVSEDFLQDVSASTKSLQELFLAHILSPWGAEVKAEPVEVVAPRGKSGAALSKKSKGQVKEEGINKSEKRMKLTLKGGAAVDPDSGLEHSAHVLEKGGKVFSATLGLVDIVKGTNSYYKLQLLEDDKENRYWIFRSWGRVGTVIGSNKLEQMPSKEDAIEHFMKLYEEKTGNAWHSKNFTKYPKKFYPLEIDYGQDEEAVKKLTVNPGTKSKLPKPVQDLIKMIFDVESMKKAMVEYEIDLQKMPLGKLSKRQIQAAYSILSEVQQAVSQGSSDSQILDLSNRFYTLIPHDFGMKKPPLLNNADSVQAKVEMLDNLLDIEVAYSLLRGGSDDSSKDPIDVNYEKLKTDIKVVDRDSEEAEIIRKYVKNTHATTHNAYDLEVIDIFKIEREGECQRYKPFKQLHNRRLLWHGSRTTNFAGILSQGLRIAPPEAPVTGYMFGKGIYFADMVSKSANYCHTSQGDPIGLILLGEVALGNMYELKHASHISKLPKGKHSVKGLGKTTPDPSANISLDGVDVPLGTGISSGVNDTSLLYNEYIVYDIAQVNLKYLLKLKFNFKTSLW
pIC50: −log10 of the molar value.
attribute.measured: pIC50

{"molecule": "CNC(=O)c1ccc(N2CCN(CC3Cc4[nH]c(=O)c(C(F)F)cc4CO3)CC2)c(F)n1 (stereo not shown)", "study.system": "PARP1 (Homo sapiens)", "attribute.measured": "pIC50", "observed.result": "6.30 to 7.30"}
{"molecule": "CNC(=O)c1ccc(N2CCN(CC3Cc4[nH]c(=O)c(Br)cc4CO3)CC2)c(F)n1 (stereo not shown)", "study.system": "PARP1 (Homo sapiens)", "attribute.measured": "pIC50", "observed.result": "≥ 7.30"}
{"molecule": "CCc1cc2c([nH]c1=O)CC(CN1CCC(c3ccc(C(=O)NC)nc3F)CC1)OC2 (stereo not shown)", "study.system": "PARP1 (Homo sapiens)", "attribute.measured": "pIC50", "observed.result": "6.30 to 7.30"}
{"molecule": "CNC(=O)c1ccc(N2CCN(CC3Cc4[nH]c(=O)c(Cl)cc4CO3)CC2)c(F)n1 (stereo not shown)", "study.system": "PARP1 (Homo sapiens)", "attribute.measured": "pIC50", "observed.result": "6.30 to 7.30"}
{"molecule": "CCc1cc2c([nH]c1=O)CC(CN1CC=C(c3ccc(C(=O)NC4CC4)nc3)CC1)CC2 (stereo not shown)", "study.system": "PARP1 (Homo sapiens)", "attribute.measured": "pIC50", "observed.result": "≥ 7.30"}
{"molecule": "CCc1cc2c([nH]c1=O)CC(CN1CC=C(c3ccc(C(=O)NC)nc3)CC1)OC2 (stereo not shown)", "study.system": "PARP1 (Homo sapiens)", "attribute.measured": "pIC50", "observed.result": "≥ 7.30"}
{"molecule": "CNC(=O)c1ccc(N2CCN(CC3Cc4[nH]c(=O)c(C5CC5)cc4CO3)CC2)c(Cl)n1 (stereo not shown)", "study.system": "PARP1 (Homo sapiens)", "attribute.measured": "pIC50", "observed.result": "6.30 to 7.30"}
